Biological target: MSI2 R100A (Homo sapiens, UniProt Q96DH6 1-328, R100A)
Sequence (Q96DH6 whole entry R100A): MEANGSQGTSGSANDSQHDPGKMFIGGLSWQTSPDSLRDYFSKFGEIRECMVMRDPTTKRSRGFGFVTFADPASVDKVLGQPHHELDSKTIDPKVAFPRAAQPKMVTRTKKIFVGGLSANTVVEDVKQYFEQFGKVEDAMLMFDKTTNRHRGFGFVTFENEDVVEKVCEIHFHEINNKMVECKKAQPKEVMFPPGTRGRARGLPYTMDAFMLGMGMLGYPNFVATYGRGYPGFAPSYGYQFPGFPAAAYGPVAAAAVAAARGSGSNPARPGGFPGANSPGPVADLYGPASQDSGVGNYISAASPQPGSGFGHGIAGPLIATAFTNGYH
Assay: MST; MST: 50 mM HEPES, 100 mM NaCl, 0.05% Tween-20, pH 7.4, RT; EMSA: 10 mM HEPES, 20 mM KCl (+10 mM KCl), 1 mM MgCl2, 1 mM DTT, 5% glycerol, 100 ug/mL tRNA, 40 nM RNA, RT
Conditions: protein: recombinant; tags: GST, Flag; single strand
Readout label: Kd
Please append the unit to your numeric answer.

Problem: State its Kd for this binder: GUAGUAGUAGUAGUA (ssRNA) [15-nt MSI RNA oligo]
Solution: 6.5 nM
